- Test system: U937 cells (human monocytic cell line)
- protocol details: Pam2CSK4-induced TNF-α secretion inhibition in PMA-differentiated U937 cells
- Type: cell-based
- assay context: U-937, U937 cells differentiated with PMA, read-out: TNF-α production inhibition grade (IC50)
- Description: To evaluate anti-inflammatory efficacy, U937 cells (human monocytic cell line) were differentiated into macrophages using PMA (phorbol 12-myristate 13-acetate) and then induced an inflammatory response with Pam2CSK4 (Pam2CysSerLys4) or BzATP (2′(3′)—O-(4-Benzoylbenzoyl)adenosine 5′-triphosphate), the efficacy of taurine-bile acid derivatives in suppressing inflammatory cytokine (IL-1β, TNF-α) production was measured. […]
pIC50: −log10 of the molar value.
parameter measured: pIC50

{"chem smiles": "CC[C@H]1[C@@H](O)[C@@H]2[C@H](CC[C@]3(C)[C@@H]([C@H](C)CCC(=O)NCCC(=O)O)CC[C@@H]23)[C@@]2(C)CC[C@@H](O)C[C@@H]12", "measurement target": "U937 cells (human monocytic cell line)", "parameter measured": "pIC50", "val": "≤ 5.70"}
{"chem smiles": "C[C@H](CCC(=O)N(CCS(=O)(=O)O)c1ccccc1)[C@H]1CC[C@H]2[C@@H]3CC[C@@H]4CC(=O)CC[C@]4(C)[C@H]3CC[C@]12C", "measurement target": "U937 cells (human monocytic cell line)", "parameter measured": "pIC50", "val": "≤ 5.70"}
{"chem smiles": "CC(C)[C@@H](CS(=O)(=O)O)NC(=O)CC[C@@H](C)[C@H]1CC[C@H]2[C@@H]3CC[C@@H]4CC(=O)CC[C@]4(C)[C@H]3CC[C@]12C", "measurement target": "U937 cells (human monocytic cell line)", "parameter measured": "pIC50", "val": "> 6.30"}
{"chem smiles": "CC(C)N(CCS(=O)(=O)O)C(=O)CC[C@@H](C)[C@H]1CC[C@H]2[C@@H]3CC[C@@H]4C[C@H](O)CC[C@]4(C)[C@H]3C[C@H](O)[C@]12C", "measurement target": "U937 cells (human monocytic cell line)", "parameter measured": "pIC50", "val": "5.70 to 6.00"}
{"chem smiles": "C[C@H](CCC(=O)N(CCS(=O)(=O)O)Cc1ccccc1)[C@H]1CC[C@H]2[C@@H]3CC[C@@H]4CC(=O)CC[C@]4(C)[C@H]3CC[C@]12C", "measurement target": "U937 cells (human monocytic cell line)", "parameter measured": "pIC50", "val": "6.00 to 6.30"}
